- ASSAY_SUMMARY: Oral bioavailability in Wistar Han rat at 30 mg/kg after 0.5 to 24 hrs by HPLC-MS/MS analysis
- Assay type: ADME, organism-based
- CONDITION_CONTEXT: in vivo
OBSERVABLE: bioavailability (%)
Give bare numbers, in %.

Qu. Fill in the blank: the reported bioavailability of CCO[C@H]1CCN(Cc2c(OC)cc(C)c3[nH]ccc23)[C@H](c2ccc(C(=O)O)cc2)C1.Cl is ____.
Ans. 40

----------
- ASSAY_SUMMARY: AUC (0 to last) in brown Norway rat posterior eye cup at 10 mg/kg, po administered as single dose measured after 0.25 to 24 hrs by HPLC-MS/MS analysis
- Type: ADME, organism-based
OBSERVABLE: AUC(0-t) (µM·h)
One number for each entry, in µM·h.

Qu. Fill in the blank: the reported AUC(0-t) of CCO[C@H]1CCN(Cc2c(OC)cc(C)c3[nH]ccc23)[C@H](c2ccc(C(=O)O)cc2)C1 [IPTACOPAN] is ____.
Ans. 76.1

Where do these numbers come from? They come from ChEMBL document CHEMBL4613250.
